molecular target: Leucine-rich repeat serine/threonine-protein kinase 2 (Homo sapiens, UniProt Q5S007, G2019S); test: Inhibition of GST-tagged LRRK2 (1326 to 2527 amino acids) G2019S mutant (unknown origin)
Sequence (Q5S007 whole entry G2019S, the tested form may be a part): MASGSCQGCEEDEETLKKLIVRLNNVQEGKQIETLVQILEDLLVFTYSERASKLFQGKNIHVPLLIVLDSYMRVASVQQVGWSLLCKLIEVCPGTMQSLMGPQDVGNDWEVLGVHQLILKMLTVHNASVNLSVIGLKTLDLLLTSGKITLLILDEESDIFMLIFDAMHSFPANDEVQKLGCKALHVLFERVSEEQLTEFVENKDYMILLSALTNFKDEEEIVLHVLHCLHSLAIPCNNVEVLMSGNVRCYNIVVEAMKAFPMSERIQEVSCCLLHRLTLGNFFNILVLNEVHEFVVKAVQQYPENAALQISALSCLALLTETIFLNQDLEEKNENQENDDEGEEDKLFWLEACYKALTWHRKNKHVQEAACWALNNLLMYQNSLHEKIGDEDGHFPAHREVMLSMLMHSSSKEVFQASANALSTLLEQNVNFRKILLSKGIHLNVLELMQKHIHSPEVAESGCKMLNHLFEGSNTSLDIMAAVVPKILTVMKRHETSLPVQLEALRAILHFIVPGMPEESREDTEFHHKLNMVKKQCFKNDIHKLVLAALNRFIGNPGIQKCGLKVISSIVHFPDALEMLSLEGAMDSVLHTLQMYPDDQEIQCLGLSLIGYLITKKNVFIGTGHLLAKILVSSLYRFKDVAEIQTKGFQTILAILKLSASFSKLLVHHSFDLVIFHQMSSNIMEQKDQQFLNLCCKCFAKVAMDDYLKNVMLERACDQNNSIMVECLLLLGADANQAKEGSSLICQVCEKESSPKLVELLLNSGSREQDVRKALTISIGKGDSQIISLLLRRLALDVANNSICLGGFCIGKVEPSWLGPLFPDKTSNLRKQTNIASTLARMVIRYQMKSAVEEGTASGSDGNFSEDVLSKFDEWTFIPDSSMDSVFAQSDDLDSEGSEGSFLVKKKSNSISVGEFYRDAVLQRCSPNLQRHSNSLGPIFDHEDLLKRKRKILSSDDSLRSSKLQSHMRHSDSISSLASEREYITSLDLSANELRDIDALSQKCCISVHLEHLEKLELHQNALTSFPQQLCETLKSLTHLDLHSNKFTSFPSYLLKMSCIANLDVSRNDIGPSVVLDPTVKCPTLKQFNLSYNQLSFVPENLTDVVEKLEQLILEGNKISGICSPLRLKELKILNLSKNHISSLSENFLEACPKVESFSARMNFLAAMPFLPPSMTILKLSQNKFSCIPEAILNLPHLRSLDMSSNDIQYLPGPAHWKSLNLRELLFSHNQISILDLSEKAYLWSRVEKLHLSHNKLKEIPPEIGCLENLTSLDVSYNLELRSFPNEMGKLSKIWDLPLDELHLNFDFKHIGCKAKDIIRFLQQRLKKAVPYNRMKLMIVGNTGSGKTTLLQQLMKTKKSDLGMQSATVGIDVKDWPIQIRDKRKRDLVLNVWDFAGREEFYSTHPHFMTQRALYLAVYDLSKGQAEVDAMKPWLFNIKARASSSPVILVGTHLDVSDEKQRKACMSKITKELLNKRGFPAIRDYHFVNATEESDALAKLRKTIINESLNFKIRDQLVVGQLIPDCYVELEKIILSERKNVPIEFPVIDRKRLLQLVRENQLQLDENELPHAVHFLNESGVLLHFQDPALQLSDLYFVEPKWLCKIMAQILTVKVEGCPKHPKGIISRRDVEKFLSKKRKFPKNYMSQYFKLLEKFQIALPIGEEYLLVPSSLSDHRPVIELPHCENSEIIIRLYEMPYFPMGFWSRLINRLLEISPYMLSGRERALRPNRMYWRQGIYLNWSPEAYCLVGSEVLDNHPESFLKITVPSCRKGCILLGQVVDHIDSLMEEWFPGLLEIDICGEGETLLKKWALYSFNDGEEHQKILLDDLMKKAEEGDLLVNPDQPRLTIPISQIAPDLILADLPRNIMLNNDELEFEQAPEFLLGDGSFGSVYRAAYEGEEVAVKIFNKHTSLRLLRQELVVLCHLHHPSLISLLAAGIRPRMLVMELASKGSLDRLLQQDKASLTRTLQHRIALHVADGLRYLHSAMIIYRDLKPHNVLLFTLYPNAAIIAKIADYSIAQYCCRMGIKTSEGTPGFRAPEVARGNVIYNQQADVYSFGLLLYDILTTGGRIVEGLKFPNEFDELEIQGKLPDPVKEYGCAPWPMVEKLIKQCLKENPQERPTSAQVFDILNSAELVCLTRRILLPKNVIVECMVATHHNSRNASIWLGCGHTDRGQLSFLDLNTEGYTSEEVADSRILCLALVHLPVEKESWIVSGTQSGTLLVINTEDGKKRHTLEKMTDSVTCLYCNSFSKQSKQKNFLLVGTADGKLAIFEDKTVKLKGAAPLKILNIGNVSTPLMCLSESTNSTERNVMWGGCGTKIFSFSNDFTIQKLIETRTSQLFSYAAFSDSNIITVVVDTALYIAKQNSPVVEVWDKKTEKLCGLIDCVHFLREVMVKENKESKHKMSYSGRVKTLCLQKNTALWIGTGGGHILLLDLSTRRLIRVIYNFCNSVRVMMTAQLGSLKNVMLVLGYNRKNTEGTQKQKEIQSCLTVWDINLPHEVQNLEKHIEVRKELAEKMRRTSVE
MEASURE: Ki (nM)
Answer format: numeric, nM implied, no suffix.

Inquiry: Endpoint output: Ki of "COc1cc(C(=O)N2CCC(N3CCN(C)CC3)CC2)ccc1Nc1ncc2c(n1)N(C)c1ccccc1C(=O)N2C" . Value?
Reply text: 6

----------
biological target: Leucine-rich repeat serine/threonine-protein kinase 2 (Homo sapiens, UniProt Q5S007, G2019S); assay: Inhibition of human recombinant LRRK2 G2019S mutant using biotin-LRRKtide as substrate preincubated for 15 mins prior to substrate addition measured after 60 mins by TR-FRET assay
MEASURE: pKi
Expect pKi as a plain number equal to -log10 of the molar concentration.

Inquiry: Endpoint output: pKi of "COc1cc(N2CCOCC2)ccc1Nc1ncc(F)c(Nc2ccccc2NS(C)(=O)=O)n1" . Value?
Reply text: 8.15
